# Test system: Rat liver lysosome
# experiment.notes: Lysosomal membrane stabilizing activity (release of β-glucuronidase and acid phosphatase)
# Type: biochemical
# conditions: 2 × 10^-4 M, 37° C., 90 minutes
measurement.kind: % Inhibition on release of acid phosphatase (%)
Give just the number in %; leave the unit off.

Consider the worked cases shown below.
| compound | target.desc | observed |
| --- | --- | --- |
| CC(=CCC1=C(C)C(=O)C(C)=C(C)C1=O)CCC=C(C)CCC(C)(C)O [drawing 20 R#1] | Rat liver lysosome | 16 |
| COC1=C(OC)C(=O)C(C/C=C(\C)C(=O)O)=C(C)C1=O [drawing 13 R#1] | Rat liver lysosome | 44 |
| COC1=C(OC)C(=O)C(C/C=C(\C)CCCO)=C(C)C1=O [drawing 17 R#1] | Rat liver lysosome | 37 |
| CC1=C(C)C(=O)C(C/C=C(\C)CO)=C(C)C1=O [drawing 15 R#1] | Rat liver lysosome | 32 |

Enquiry: Record request: % Inhibition on release of acid phosphatase value, item COC1=C(OC)C(=O)C(CC(O)C(C)C(=O)O)=C(C)C1=O (centres unmarked) [drawing 11 R#1]
Return: 49
